Where do these numbers come from? They come from the Human Domainome abundance scans (Beltran et al. 2025).

B1: Intersectin-1, residues 1156 to 1213; numbered along this chain, Q15811 (parent)
chain: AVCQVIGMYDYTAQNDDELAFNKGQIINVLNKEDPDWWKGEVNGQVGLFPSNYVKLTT

- Variants of: B1
- protocol_summary: abundance fitness (aPCA) (normalised: wild type 0, dead -1); higher = more abundant; growth selection in yeast, the domain comes from the species named
- recorded_conditions: Homo sapiens
result_type: abundance fitness
Answers are plain numbers.

Some solved entries appear below for comparison.
I6V | 0.159
G40D | -0.722
D17R | 0.014
L19V | -0.281
D10M | 0.001

Please state, for each entry, its recorded abundance fitness.
1. N31Y
2. N43T
3. Y53M
4. E18A
5. T57F
6. F21P
7. G7R

# output
-0.525
-0.85
0.12
-0.646
0.086
-1.06
-0.849

Please state, for each entry, its recorded abundance fitness.
1. N22F
2. C3L
3. G44C
4. T57W
5. A20Y
6. L48F
7. D17V
8. V46G

# output
1: -0.432; 2: -0.387; 3: -0.682; 4: -0.167; 5: -0.662; 6: 0.146; 7: -0.473; 8: -0.712

Please state, for each entry, its recorded abundance fitness.
1. K55C
2. V46L
3. E18R
4. D10C
5. N15P
6. N43M
7. Y9F
8. M8G

# output
1. -0.098
2. -0.499
3. -0.819
4. -0.472
5. -0.964
6. -0.56
7. 0.259
8. -0.51

Please state, for each entry, its recorded abundance fitness.
1. N28E
2. L56W
3. F49C
4. Y11I
5. G40Y

# output
1. -0.156
2. -0.405
3. -0.871
4. -0.563
5. -0.73
